# ASSAY_SYSTEM: CitO-L214A (Enterococcus faecalis, UniProt Q82YV4, L214A)
# ASSAY_EXPLANATION: biochemical
# Type: binding
EXPERIMENTAL_ENDPOINT: pKd
Numbers only, as −log10 of the molar value.

INPUT: Which value of pKd has been reported for O=C(O)CC(O)(CC(=O)O)C(=O)O [citrate] in the records?
OUTPUT: 5.92

====

# ASSAY_SYSTEM: CitO-wt (Enterococcus faecalis)
# Type: biochemical
# REPORTED_CONDITIONS: EMSA, 0.2 μM CitO-wt, Me2+ 2 mM, absence of citrate
EXPERIMENTAL_ENDPOINT: Effect on binding of CitO to PcitH−CL

1. [Ni+2] [Ni^2+]
decreased the binding
2. [Zn+2] [Zn^2+]
decreased the binding

====

# ASSAY_SYSTEM: CitO-wt (Enterococcus faecalis, UniProt Q82YV4)
# Sequence (Q82YV4 entry or part of it): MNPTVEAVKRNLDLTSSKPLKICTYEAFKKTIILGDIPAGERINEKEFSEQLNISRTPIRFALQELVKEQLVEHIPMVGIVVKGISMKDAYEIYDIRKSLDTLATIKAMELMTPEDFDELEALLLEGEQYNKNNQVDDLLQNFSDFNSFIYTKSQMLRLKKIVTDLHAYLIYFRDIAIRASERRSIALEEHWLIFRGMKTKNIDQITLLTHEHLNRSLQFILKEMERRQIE
EXPERIMENTAL_ENDPOINT: pKd
Answers are plain numbers, as −log10 of the molar value.

INPUT: Give pKd (CitO-wt (Enterococcus faecalis, UniProt Q82YV4)) of the following compound: O=C(O)CC(O)(CC(=O)O)C(=O)O [citrate]
OUTPUT: 5.92

====

# ASSAY_SYSTEM: CitO-H74A (Enterococcus faecalis, UniProt Q82YV4, H74A)
# ASSAY_EXPLANATION: biochemical
EXPERIMENTAL_ENDPOINT: Kd (nM)
Numbers only, in nM.

INPUT: Return reported Kd; argument: O=C(O)CC(O)(CC(=O)O)C(=O)O [citrate]
OUTPUT: 820

====

# ASSAY_SYSTEM: CitO-Q64A (Enterococcus faecalis, UniProt Q82YV4, Q64A)
# ASSAY_EXPLANATION: biochemical
EXPERIMENTAL_ENDPOINT: pKd
Answers are plain numbers, as −log10 of the molar value.

INPUT: Query for CitO-Q64A (Enterococcus faecalis, UniProt Q82YV4, Q64A): what pKd does the record show for O=C(O)CC(O)(CC(=O)O)C(=O)O [citrate] ?
OUTPUT: 6.11
